The entries below come with measured melting point values attached.

Below are worked cases with known answers.
> print(dat)
                                   molecule  observed.value
1                      CSc1cn(C)c2ccsc2c1=O   171 to 174 °C
2  COCC1(OP(=O)(O)O)CCN(c2c(F)cc(N3C[C@H](CNC(C)=O)OC3=O)cc2F)CC1        > 140 °C
3  CCCCCCOC(=O)NCc1ccc2c(c1)C(=O)N(C1CCC(=O)NC1=O)C2=O (stereo not given)   111 to 113 °C
4                 CCOc1noc2c1CN(C(=O)OC)CC2     95 to 98 °C
5   O=c1c2cccnc2c(-c2cccc(Cl)c2)nn1Cc1ccsc1   165 to 166 °C
6  O=[N+]([O-])c1cc2nc(Cl)c(Cl)nc2cc1Sc1ncc[nH]1        > 300 °C

Sure, the documented melting point for "CC(=O)Oc1ccc2c(c1Cl)Sc1ccccc1N2" is 173 °C

Sure, the documented melting point for "Cc1c(C2CCCC2)c(=O)oc2cc(OCc3nnn[nH]3)cc(OCc3nnn[nH]3)c12" is 248 to 252 °C

Sure, the documented melting point for "O=[N+]([O-])c1cnn2c(-c3ccccc3C(F)(F)F)ccnc12" is 195 to 197 °C

Sure, the documented melting point for "Nc1ccc(-c2cccc([N+](=O)[O-])c2)cc1O" is 175 to 176 °C

---

The entries below come with measured melting point values attached.

> print(dat)
                                compound  measured.metric  observed.value
1  CC(C)c1nc(CCO)n(C)c1Sc1cc(Cl)cc(Cl)c1    melting point   177 to 178 °C

Sure, the documented melting point for "CCN1N=C(c2ccc([N+](=O)[O-])cc2)C(C)(C)C1=O" is 118 to 120 °C

Sure, the documented melting point for O=c1[nH]c(=O)n(C2CC(F)C(CO)O2)cc1C(I)=CI (centres undefined) is 112 °C

Sure, the documented melting point for CC(=O)OCC1OC(n2cc(Cc3ccc4occc4c3)c3c(F)cccc32)C(OC(C)=O)C(OC(C)=O)C1OC(C)=O (centres undefined) is 184 to 185 °C

Sure, the documented melting point for "CN=Cc1ccc2cc(OC)ccc2c1" is 109 to 110 °C

Sure, the documented melting point for "COCCc1c[nH]c(-c2ccc(OCc3ccccc3)cc2)n1" is 154 to 156 °C

Sure, the documented melting point for "CCCCc1nc2c(N)nc3ccccc3c2n1CC1(O)CCCCC1" is 218 to 220 °C

Sure, the documented melting point for "CCCn1cc(-c2nc(C#N)c(N)nc2-c2ccccc2)ccc1=O" is 180 to 183 °C

Sure, the documented melting point for NC(=O)NCCCC(NC(=O)OCc1ccccc1)C(=O)OCc1ccc([N+](=O)[O-])cc1 (centres undefined) is 144 to 146 °C

Sure, the documented melting point for CC(=O)Oc1ccc2c(c1)C(=O)CC1C2CCC2(C)C(OC(C)=O)CCC12 (centres undefined) is 171 to 175 °C

Sure, the documented melting point for "CNc1nc(C)c(-c2nc3ccccc3c(=O)n2-c2ccc(Cl)cc2)s1" is 195 to 197 °C

Sure, the documented melting point for "CCCC(CCC)(CCC)C(=O)O" is 67 °C

Sure, the documented melting point for "NC(=O)CCSSSSCCC(N)=O" is 127 °C

Sure, the documented melting point for "Cc1ccc2oc(=O)c(C(=O)Oc3cccc4cnccc34)cc2c1" is 188 to 190 °C

---

The entries below come with measured melting point values attached.

Below are worked cases with known answers.
> print(dat)
                                   compound  observed.value
1  Cc1cc(COc2ccc(C(=O)NC[C@](O)(C(N)=O)N3CCN(Cc4ccccc4)CC3)cc2)c2ccccc2n1          169 °C
2            COc1cc(S(=O)(=O)c2ccccc2)ccc1N   149 to 150 °C
3  Fc1ccc(-c2n[nH]c(-c3ccncc3)c2-c2ccncc2)cc1          304 °C
4       CCCN(CCC)C(=O)CNc1ccnc(-c2ccccc2)n1     74 to 75 °C
5  Cc1ccc(OCc2ccc(OCc3nc(-c4ccccc4)oc3C)cc2)c(CC(=O)O)c1   115 to 116 °C
6  Cc1cccc(-c2nc3c(C)cccc3[nH]2)c1[N+](=O)[O-]   186 to 188 °C

Sure, the documented melting point for "O=S(=O)(CC(F)(F)F)c1nc2cc(Cl)ccc2[nH]1" is 161 to 164 °C

Sure, the documented melting point for CC(C(=O)c1ccc2c(c1)CC(=O)N2)N1CCC(O)(Cc2ccccc2)CC1 (stereo not given) is 188 to 192 °C

Sure, the documented melting point for "COCc1cccc(C(=O)c2nc(OC)cc(OC)n2)c1[N+](=O)[O-]" is 111 to 113 °C

Sure, the documented melting point for "CCn1nc(OCCCc2ccc(OC(C)C)cc2Oc2ncc(C(F)(F)F)cc2Cl)cc1CCC(=O)O" is 73 to 74 °C

Sure, the documented melting point for "Fc1cccc(-c2ccc3nncn3n2)c1" is 159 to 161 °C

Sure, the documented melting point for "CC(C)c1cc(C(=O)CON2C(=O)c3ccccc3C2=O)cc(C(C)C)c1O" is 136 to 139 °C

Sure, the documented melting point for "COc1ccc(Nc2nccc(-c3ccc(Cl)nc3)n2)cn1" is 203 to 205 °C

Sure, the documented melting point for "Nc1ncnc2c1c(-c1cccc(Cl)c1)cn2-c1ccccc1" is 173 to 175 °C

Sure, the documented melting point for Cc1ccc2c(c1)N(CC(=O)c1ccccc1C)C(=O)C(NC(=O)Nc1cccc(C(=O)O)c1)CN2C(=O)OCc1ccccc1 (stereo not given) is 144 to 147 °C

Sure, the documented melting point for "COC(=O)C(=CC(=CN(C)C)c1ccc(C)cc1[N+](=O)[O-])[N+](=O)[O-]" is 213 to 215 °C

Sure, the documented melting point for "O=C(CCCl)c1ccc(O)c(Cl)c1Cl" is 109 to 111 °C

Sure, the documented melting point for "NC(=O)Cc1c[nH]c2ccc(OCc3ccccc3)cc12" is 137 to 140 °C

Sure, the documented melting point for "CCSCC(=C1NCCCS1)[N+](=O)[O-]" is 69.5 to 71 °C

---

measured.metric: melting point

Below are worked cases with known answers.
> print(dat)
                                   molecule  measured.metric  observed.value
1  Cc1nc(-n2ccc(O)cc2=O)sc1C(=O)NCc1ccc(F)c(F)c1    melting point   294 to 296 °C
2  CS(=O)(=O)c1ccc(N2C=CC(N3CCCC3)C(=O)N2c2ccc(F)cc2)cc1 (stereo not given)    melting point   192 to 195 °C
3    CCCCCCCCCCCCCCCC(=O)OC[C@H](O)COC(C)=O    melting point   37 to 37.5 °C

Sure, the documented melting point for CCCSc1nc(NC2CC2c2ccc(OC)c(C)c2)c2nnn(C3CC(O)C(O)C3O)c2n1 (stereo not given) is 135 to 136 °C

Sure, the documented melting point for "CCOC(=O)c1ncc2[nH]c3ccc(C4=CC(=O)CCC4)cc3c2c1C" is 245 to 248 °C

---

The entries below come with measured melting point values attached.

> print(dat)
                                   compound  observed.value
1  O=C(CSc1nc2ccccc2s1)NC1(C(=O)O)Cc2ccc(-c3ccc(Cl)cc3)cc2C1 (centres undefined)   205 to 207 °C

Sure, the documented melting point for "CC(C)(C(=O)NCCC#N)c1ccc(C(=O)Nc2cn3cc(Cl)ccc3n2)cc1" is 208 to 209 °C

Sure, the documented melting point for "Nc1cc(Oc2ccc(CCO)cc2)c(N)c2c1C(=O)c1ccccc1C2=O" is 224 to 227 °C

Sure, the documented melting point for "COCCOc1ccc(N)c([N+](=O)[O-])c1" is 89 to 90 °C

Sure, the documented melting point for "O=C(Nc1cnc2sc(CO)nc2c1)c1cc2cc(F)ccc2n1Cc1cccc(F)c1" is 225 to 226 °C

Sure, the documented melting point for "Cc1sc(-c2ccccc2)nc1COc1ccc(CCC[C@@H](O)C(=O)O)cc1" is 117 to 118 °C

Sure, the documented melting point for "CC(=O)Oc1ccc(C(=O)Nc2ccc3ccc(Cl)nc3n2)cc1" is 220 °C

---

measured.metric: melting point

Below are worked cases with known answers.
> print(dat)
                                   compound  observed.value
1  CCOc1ccc2c(c1)n(C1CCCCC1)c(=O)n2S(=O)(=O)c1ccc(C(=O)NC2Cc3ccccc3C2)cc1OC          160 °C
2  C=CCN(CC=C)c1nc(NC(=O)OCC(C)C)n2oc(=O)nc2n1   161 to 163 °C

Sure, the documented melting point for "N#CN1CCC2(CC1)CN(c1ccccc1F)c1ccccc12" is 131 to 132 °C

Sure, the documented melting point for COc1cccc2c(CCCCN(CC3CC3)C3COc4c(F)ccc(C(N)=O)c4C3)coc12 (configuration not stated) is 114 to 120 °C

Sure, the documented melting point for "COc1ccc2c(-c3ccccn3)noc2c1Cl" is 164 to 166 °C

Sure, the documented melting point for "C#Cc1ccc(C2=C(C#N)C(=C(C#N)C#N)OC2(C)C)cc1" is 225 °C

Sure, the documented melting point for "CCCCCN(CCCCC)C(=O)CCCCC(=O)O" is 152 °C

Sure, the documented melting point for "Cc1nccn1-c1nc(-c2ccc(Cl)cc2)c(CCCn2cccn2)o1" is 129 to 130 °C
